Test system: Crono. sakazakii ATCC 29544
Assay: MIC in Nutrient Broth No. 2
Assay type: cell-based, Cronobacter sakazakii
Settings: Nutrient Broth No. 2; with inducer 100 μg/ml
Collected MIC values appear next to each entry.
Give the figure together with its unit, number first.

Example cases with answers are listed next.
> print(dat)
                                   molecule  test.result
1  OC[C@H]1O[C@H](Oc2cc(Cl)ccc2Oc2ccc(Cl)cc2Cl)[C@H](O)[C@@H](O)[C@H]1O [α-D-Galactoside, triclosan-α-D-galactopyranoside]     64 µg/mL
2  OC[C@H]1O[C@H](Oc2cc(Cl)ccc2Oc2ccc(Cl)cc2Cl)[C@H](O)[C@@H](O)[C@@H]1O [α-D-Glucoside, triclosan-α-D-glucopyranoside]      4 µg/mL

Q: Would you mind telling me what MIC value was observed for OC[C@H]1O[C@H](Oc2cc(Cl)ccc2Oc2ccc(Cl)cc2Cl)[C@@H](O)[C@@H](O)[C@@H]1O [α-D-Mannoside, triclosan-α-D-mannopyranoside] ?
Result: 32 µg/mL

Q: Similarly, OC[C@H]1O[C@@H](Oc2cc(Cl)ccc2Oc2ccc(Cl)cc2Cl)[C@H](O)[C@@H](O)[C@@H]1O [β-D-Glucoside, triclosan-β-D-glucopyranoside] ?
Result: 8 µg/mL

Q: Similarly, O[C@@H]1[C@H](Oc2cc(Cl)ccc2Oc2ccc(Cl)cc2Cl)OC[C@@H](O)[C@H]1O [β-D-Arabinoside, triclosan-β-D-arabinopyranoside] ?
Result: 64 µg/mL

* * *

Tested on: Staph. aureus
Assay: MIC in Nutrient Broth No. 2
Assay type: cell-based, Staphylococcus aureus
Conditions: 8 strains; Nutrient Broth No. 2; with inducer 100 μg/ml
Procedure: Bacteria species as indicated in Table 1 were incubated for approximately 24 hours at 37° C. The tests were repeated with the addition of inducers. Methyl glycoside was the main inducer used, but other suitable inducers include isopropyl-β-D-thiogalactopyranoside, p-nitrophenyl-α-L-arabinopyranoside and p-nitrophenyl-β-D-xylopyranoside. Concentration of inducer in all cases was 100 μg/ml.
OUTCOME MEASURE: MIC

Example cases with answers are listed next.
> print(dat)
                                   compound  outcome.measure    test.result
1  OC[C@H]1O[C@H](Oc2cc(Cl)ccc2Oc2ccc(Cl)cc2Cl)[C@@H](O)[C@@H](O)[C@@H]1O [α-D-Mannoside, triclosan-α-D-mannopyranoside]              MIC   2 to 8 µg/mL
2  OC[C@H]1O[C@H](Oc2cc(Cl)ccc2Oc2ccc(Cl)cc2Cl)[C@H](O)[C@@H](O)[C@H]1O [α-D-Galactoside, triclosan-α-D-galactopyranoside]              MIC  8 to 16 µg/mL
3  O[C@@H]1[C@H](Oc2cc(Cl)ccc2Oc2ccc(Cl)cc2Cl)OC[C@@H](O)[C@H]1O [β-D-Arabinoside, triclosan-β-D-arabinopyranoside]              MIC   4 to 8 µg/mL
4  OC[C@H]1O[C@H](Oc2cc(Cl)ccc2Oc2ccc(Cl)cc2Cl)[C@H](O)[C@@H](O)[C@@H]1O [α-D-Glucoside, triclosan-α-D-glucopyranoside]              MIC        1 µg/mL

Then there is this compound:
Q: Would you mind telling me what MIC value was observed for OC[C@H]1O[C@@H](Oc2cc(Cl)ccc2Oc2ccc(Cl)cc2Cl)[C@H](O)[C@@H](O)[C@@H]1O [β-D-Glucoside, triclosan-β-D-glucopyranoside] ?
Result: 0.5 to 2 µg/mL

* * *

Collected MIC values appear next to each entry.
Tested on: S. saprophyticus
Test: MIC in Nutrient Agar
Assay type: cell-based, Staphylococcus saprophyticus
Settings: Nutrient Agar containing 0.1 μg/ml of inducer; 37° C., 24 hours
Your answer is read as µg/mL, so omit the unit and give the number.

Example cases with answers are listed next.
> print(dat)
                                   molecule      study.system  outcome.measure  units.label  test.result
1  O[C@@H]1[C@H](Oc2cc(Cl)ccc2Oc2ccc(Cl)cc2Cl)OC[C@@H](O)[C@H]1O [β-D-Arabinoside, triclosan-β-D-arabinopyranoside]  S. saprophyticus              MIC        µg/mL           64
2  OC[C@H]1O[C@H](Oc2cc(Cl)ccc2Oc2ccc(Cl)cc2Cl)[C@H](O)[C@@H](O)[C@@H]1O [α-D-Glucoside, triclosan-α-D-glucopyranoside]  S. saprophyticus              MIC        µg/mL            4
3  OC[C@H]1O[C@H](Oc2cc(Cl)ccc2Oc2ccc(Cl)cc2Cl)[C@@H](O)[C@@H](O)[C@@H]1O [α-D-Mannoside, triclosan-α-D-mannopyranoside]  S. saprophyticus              MIC        µg/mL           32
4  OC[C@H]1O[C@H](Oc2cc(Cl)ccc2Oc2ccc(Cl)cc2Cl)[C@H](O)[C@@H](O)[C@H]1O [α-D-Galactoside, triclosan-α-D-galactopyranoside]  S. saprophyticus              MIC        µg/mL           32

Then there is this molecule:
Q: Would you mind telling me what MIC value was observed for OC[C@H]1O[C@@H](Oc2cc(Cl)ccc2Oc2ccc(Cl)cc2Cl)[C@H](O)[C@@H](O)[C@@H]1O [β-D-Glucoside, triclosan-β-D-glucopyranoside] ?
Result: 32

* * *

Collected MIC values appear next to each entry.
Test system: Bacillus subtilis
Test: MIC in Nutrient Agar
Assay type: cell-based
Conditions: Nutrient Agar containing 0.1 μg/ml of inducer; 37° C., 24 hours
Give the figure together with its unit, number first.

Example cases with answers are listed next.
> print(dat)
                                   compound  outcome.measure  test.result
1  O[C@@H]1[C@H](Oc2cc(Cl)ccc2Oc2ccc(Cl)cc2Cl)OC[C@@H](O)[C@H]1O [β-D-Arabinoside, triclosan-β-D-arabinopyranoside]              MIC    256 µg/mL
2  OC[C@H]1O[C@H](Oc2cc(Cl)ccc2Oc2ccc(Cl)cc2Cl)[C@@H](O)[C@@H](O)[C@@H]1O [α-D-Mannoside, triclosan-α-D-mannopyranoside]              MIC    256 µg/mL
3  OC[C@H]1O[C@H](Oc2cc(Cl)ccc2Oc2ccc(Cl)cc2Cl)[C@H](O)[C@@H](O)[C@@H]1O [α-D-Glucoside, triclosan-α-D-glucopyranoside]              MIC     16 µg/mL
4  OC[C@H]1O[C@@H](Oc2cc(Cl)ccc2Oc2ccc(Cl)cc2Cl)[C@H](O)[C@@H](O)[C@@H]1O [β-D-Glucoside, triclosan-β-D-glucopyranoside]              MIC    256 µg/mL

Q: Would you mind telling me what MIC value was observed for OC[C@H]1O[C@H](Oc2cc(Cl)ccc2Oc2ccc(Cl)cc2Cl)[C@H](O)[C@@H](O)[C@H]1O [α-D-Galactoside, triclosan-α-D-galactopyranoside] ?
Result: 128 µg/mL

* * *

System: Staph. aureus
Experiment: MIC in Nutrient Broth No. 2
Type: cell-based, Staphylococcus aureus
Settings: 8 strains; Nutrient Broth No. 2; without inducer
OUTCOME MEASURE: MIC

Example cases with answers are listed next.
> print(dat)
                                   compound   test.result
1  OC[C@H]1O[C@H](Oc2cc(Cl)ccc2Oc2ccc(Cl)cc2Cl)[C@H](O)[C@@H](O)[C@@H]1O [α-D-Glucoside, triclosan-α-D-glucopyranoside]       1 µg/mL
2  O[C@@H]1[C@H](Oc2cc(Cl)ccc2Oc2ccc(Cl)cc2Cl)OC[C@@H](O)[C@H]1O [β-D-Arabinoside, triclosan-β-D-arabinopyranoside]  4 to 8 µg/mL

Q: Test system Staph. aureus; read-out MIC; what value for OC[C@H]1O[C@H](Oc2cc(Cl)ccc2Oc2ccc(Cl)cc2Cl)[C@@H](O)[C@@H](O)[C@@H]1O [α-D-Mannoside, triclosan-α-D-mannopyranoside] ?
Result: 2 to 8 µg/mL

Q: Similarly, OC[C@H]1O[C@H](Oc2cc(Cl)ccc2Oc2ccc(Cl)cc2Cl)[C@H](O)[C@@H](O)[C@H]1O [α-D-Galactoside, triclosan-α-D-galactopyranoside] ?
Result: 8 to 16 µg/mL

Q: Similarly, OC[C@H]1O[C@@H](Oc2cc(Cl)ccc2Oc2ccc(Cl)cc2Cl)[C@H](O)[C@@H](O)[C@@H]1O [β-D-Glucoside, triclosan-β-D-glucopyranoside] ?
Result: 4 to 8 µg/mL

* * *

Tested on: Aeromonas hydrophila OCC 778
Experiment: MIC in Nutrient Broth No. 2
Format: cell-based
Conditions: Nutrient Broth No. 2; with inducer 100 μg/ml
OUTCOME MEASURE: MIC

> print(dat)
                                   compound  outcome.measure  test.result
1  OC[C@H]1O[C@H](Oc2cc(Cl)ccc2Oc2ccc(Cl)cc2Cl)[C@H](O)[C@@H](O)[C@@H]1O [α-D-Glucoside, triclosan-α-D-glucopyranoside]              MIC    256 µg/mL
2  OC[C@H]1O[C@@H](Oc2cc(Cl)ccc2Oc2ccc(Cl)cc2Cl)[C@H](O)[C@@H](O)[C@@H]1O [β-D-Glucoside, triclosan-β-D-glucopyranoside]              MIC    256 µg/mL
3  O[C@@H]1[C@H](Oc2cc(Cl)ccc2Oc2ccc(Cl)cc2Cl)OC[C@@H](O)[C@H]1O [β-D-Arabinoside, triclosan-β-D-arabinopyranoside]              MIC   >256 µg/mL

Q: Would you mind telling me what MIC value was observed for OC[C@H]1O[C@H](Oc2cc(Cl)ccc2Oc2ccc(Cl)cc2Cl)[C@H](O)[C@@H](O)[C@H]1O [α-D-Galactoside, triclosan-α-D-galactopyranoside] ?
Result: >256 µg/mL

Q: Similarly, OC[C@H]1O[C@H](Oc2cc(Cl)ccc2Oc2ccc(Cl)cc2Cl)[C@@H](O)[C@@H](O)[C@@H]1O [α-D-Mannoside, triclosan-α-D-mannopyranoside] ?
Result: >256 µg/mL
